Tested on: 519858-162-T-J1-PDC complex spheroid viability;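 also: spheroids exposed to compounds for 7 days; 100% = DMSO vehicle control viability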
Assay: Anticancer human tumor 519858-162-T-J1-PDC patient-derived colon adenocarcinoma cell line growth inhibition [GQUAD]
Conditions: second compound 3.16 µM; first compound 3.16 µM; stronger effect = lower value
Decision: viability, T/C beneath 60% gives 1.0; viability, T/C meeting or exceeding 60% gives 0.0.

Query string: Is 60% strictly greater than the molecule's reported viability, T/C? molecule: C=CCn1c(=O)c2cnc(Nc3ccc(N4CCN(C)CC4)cc3)nc2n1-c1cccc(C(C)(C)O)n1 + Cc1cnc(CNC(=O)c2c(=O)c3ccc(N4CCCN(C)CC4)nc3n3c2sc2ccccc23)cn1
Result string: 1.0

Query string: Is 60% strictly greater than the molecule's reported viability, T/C? molecule: CCCS(=O)(=O)Nc1ccc(F)c(C(=O)c2c[nH]c3ncc(-c4ccc(Cl)cc4)cc23)c1F + Cc1[nH]c2ccc(F)cc2c1-c1nc2c3cccnc3c3ncccc3c2[nH]1
Result string: 0.0

Query string: Is 60% strictly greater than the molecule's reported viability, T/C? molecule: COc1ncnc(C2CC2)c1-c1ncc2cnn(Cc3ccc(-c4nc(C(F)(F)F)cn4C(C)C)cc3)c2n1 + Cc1cnc(CNC(=O)c2c(=O)c3ccc(N4CCCN(C)CC4)nc3n3c2sc2ccccc23)cn1
Result string: 0.0

Query string: Is 60% strictly greater than the molecule's reported viability, T/C? molecule: COc1cccc2c1C(=O)c1c(O)c3c(c(O)c1C2=O)CC(O)(C(=O)CO)CC3OC1CC(N)C(O)C(C)O1 (stereo not given) + Cc1[nH]c2ccc(F)cc2c1-c1nc2c3cccnc3c3ncccc3c2[nH]1
Result string: 0.0

Query string: Is 60% strictly greater than the molecule's reported viability, T/C? molecule: CC(=O)O[C@H]1C(=O)[C@@]2(C)[C@H]([C@H](OC(=O)c3ccccc3)[C@]3(O)C[C@H](OC(=O)[C@H](O)[C@@H](NC(=O)c4ccccc4)c4ccccc4)C(C)=C1C3(C)C)[C@]1(OC(C)=O)CO[C@@H]1C[C@@H]2O + Cc1[nH]c2ccc(F)cc2c1-c1nc2c3cccnc3c3ncccc3c2[nH]1
Result string: 0.0

Numbers sourced from PubChem BioAssay AID2060507.
